# assayed.target: hERG (Kv11.1, KCNH2) (Homo sapiens, UniProt Q12809)
# Sequence (Q12809 whole entry): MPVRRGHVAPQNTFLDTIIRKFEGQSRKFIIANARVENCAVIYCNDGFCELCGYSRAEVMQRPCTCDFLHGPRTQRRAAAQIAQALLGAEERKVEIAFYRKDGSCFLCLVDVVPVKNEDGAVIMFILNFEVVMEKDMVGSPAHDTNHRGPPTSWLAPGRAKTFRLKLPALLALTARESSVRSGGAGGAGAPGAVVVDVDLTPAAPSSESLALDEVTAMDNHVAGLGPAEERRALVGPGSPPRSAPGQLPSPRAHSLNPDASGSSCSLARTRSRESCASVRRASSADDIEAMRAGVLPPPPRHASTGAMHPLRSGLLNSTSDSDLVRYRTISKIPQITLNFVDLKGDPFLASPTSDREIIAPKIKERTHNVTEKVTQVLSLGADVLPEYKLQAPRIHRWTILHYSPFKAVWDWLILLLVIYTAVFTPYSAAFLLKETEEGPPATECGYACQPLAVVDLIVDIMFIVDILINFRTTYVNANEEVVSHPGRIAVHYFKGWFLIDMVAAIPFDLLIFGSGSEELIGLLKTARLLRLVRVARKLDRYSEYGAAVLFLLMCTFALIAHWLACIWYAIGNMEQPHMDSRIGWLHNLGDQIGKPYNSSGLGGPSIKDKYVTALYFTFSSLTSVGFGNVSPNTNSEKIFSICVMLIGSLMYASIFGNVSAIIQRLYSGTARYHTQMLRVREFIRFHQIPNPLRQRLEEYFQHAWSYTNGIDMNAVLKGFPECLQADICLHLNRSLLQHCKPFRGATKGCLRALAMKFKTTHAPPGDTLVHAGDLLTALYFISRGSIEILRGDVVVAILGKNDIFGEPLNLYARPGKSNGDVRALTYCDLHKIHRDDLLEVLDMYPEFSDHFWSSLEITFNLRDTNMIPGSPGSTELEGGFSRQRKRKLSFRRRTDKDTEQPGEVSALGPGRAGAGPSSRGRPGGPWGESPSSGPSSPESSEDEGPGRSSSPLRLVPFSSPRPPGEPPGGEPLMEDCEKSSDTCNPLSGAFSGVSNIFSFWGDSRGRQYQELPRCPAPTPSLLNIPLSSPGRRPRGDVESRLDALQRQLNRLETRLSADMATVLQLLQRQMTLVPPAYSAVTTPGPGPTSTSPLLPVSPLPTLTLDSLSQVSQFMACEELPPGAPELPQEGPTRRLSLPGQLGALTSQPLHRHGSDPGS
# experiment.notes: in vitro
# Description: MMV: Malaria Box compounds were tested for inhibition of the human ether a go-go related gene (hERG), Kv11.1 channel, using IonWorks 384-well patch clamp electrophysiology at 11.1uM (3 independent assay plates up to 12 cells per concentration).
parameter.measured: inhibition at 11.1 µM (%)
Value expressed in %; do not type the unit.

Some entries whose results are on file:
# compound, output.unit, obs.value
records = [
    ("CCn1c2c(c(=N)c3c1CCC3)CCCC2", "%", 104),
    ("CCn1c(SCC(=O)Nc2cc(C(F)(F)F)ccc2Cl)nc2ccccc2c1=O", "%", 34),
    ("CCCCOC(=O)c1ccc(Nc2cc(C)nc3ccc(OC)cc23)cc1", "%", 91),
    ("CCCCCCc1cc2cc(-c3csc(C=Cc4ccccc4)n3)c(=O)oc2cc1O", "%", 93),
]

**Q:** # get_value(readout='inhibition at 11.1 µM', item= CCN(CC)CCNc1ncnc2c1[nH]c1ccc(Cl)cc12 )
**A:** 97

**Q:** # get_value(readout='inhibition at 11.1 µM', item= COc1ccc(CNC2CCN(c3ccc(NC(=O)c4cccc(Cl)c4)cc3)CC2)cc1OC )
**A:** 102

**Q:** # get_value(readout='inhibition at 11.1 µM', item= CCOc1cccc2sc(N(Cc3cccnc3)C(=O)C3CCCCC3)nc12 )
**A:** 54

**Q:** # get_value(readout='inhibition at 11.1 µM', item= CCc1ccc(Nc2cc(C)c3ccc(O)cc3n2)cc1 )
**A:** 78

**Q:** # get_value(readout='inhibition at 11.1 µM', item= COc1ccc(-c2cc3c(SCC(=O)Nc4cc(C(F)(F)F)ccc4Cl)nccn3n2)cc1 )
**A:** 17

**Q:** # get_value(readout='inhibition at 11.1 µM', item= OC(CNCC1CCCO1)Cn1c2ccc(Cl)cc2c2cc(Cl)ccc21 (stereo not given) )
**A:** 16

**Q:** # get_value(readout='inhibition at 11.1 µM', item= CN(C)c1ccc(N=Cc2ccc(N3CCOCC3)cc2)cc1 )
**A:** -3

**Q:** # get_value(readout='inhibition at 11.1 µM', item= COc1ccccc1CNC(=O)C1c2ccccc2C(=O)N(CC(C)C)C1c1cccs1 (stereo not given) )
**A:** 17

**Q:** # get_value(readout='inhibition at 11.1 µM', item= Fc1ccc2[nH]c3c(NCCCN4CCOCC4)ncnc3c2c1 )
**A:** 77

**Q:** # get_value(readout='inhibition at 11.1 µM', item= COc1ccc(C)c2sc(N(Cc3cccnc3)C(=O)c3ccc(C#N)cc3)nc12 )
**A:** 69

**Q:** # get_value(readout='inhibition at 11.1 µM', item= Cc1ccc2c(C)nc(Nc3nc(C)cc(-c4ccccc4)n3)nc2c1 )
**A:** 4

---

# assayed.target: hERG (Kv11.1, KCNH2) (Homo sapiens)
# experiment.notes: in vitro
# Description: MMV: Malaria Box compounds were tested for inhibition of the human ether a go-go related gene (hERG), Kv11.1 channel, using IonWorks 384-well patch clamp electrophysiology at 1.1uM (3 independent assay plates up to 12 cells per concentration).
parameter.measured: inhibition at 1.1 µM

Some entries whose results are on file:
# molecule, obs.value
records = [
    ("O=C(Nc1ccc(F)c(Cl)c1)Nc1ccc(Cl)c(Cl)c1", "-11%"),
    ("O=C(Nc1ccc(Cl)cc1)N1CCN(c2ccc3nncn3n2)CC1", "0%"),
    ("COc1ccccc1CNC(=O)C1c2ccccc2C(=O)N(CC(C)C)C1c1cccs1 (centres undefined)", "-15%"),
    ("Clc1ccc2c(N3CCCC3)ccnc2c1", "38%"),
    ("CCc1c(C)c(=N)c2ccccc2n1C", "6%"),
    ("c1ccc2c(NCCc3c[nH]c4ccccc34)c3ccccc3nc2c1", "64%"),
    ("Cc1cccc(N2C(=O)C3C(C2=O)C2(c4ccccc4)C(=O)C3(c3ccccc3)C(c3ccc4c(c3)OCO4)=C2c2ccc3c(c2)OCO3)c1 (centres undefined)", "-14%"),
    ("O=C(CSc1ccc2nnc(-c3cccc(F)c3)n2n1)Nc1ccc2c(c1)OCO2", "5%"),
]

**Q:** Notebook entry, hERG (Kv11.1, KCNH2) (Homo sapiens) assay: inhibition at 1.1 µM of O=[N+]([O-])c1ccc(C=NNc2nc3ccccc3[nH]2)cc1 = ?
**A:** 15%

**Q:** Notebook entry, hERG (Kv11.1, KCNH2) (Homo sapiens) assay: inhibition at 1.1 µM of Cc1ccc(C)c(Cn2c(N3CCC(C(=O)NCc4cccs4)CC3)nc3ccccc32)c1 = ?
**A:** 16%

**Q:** Notebook entry, hERG (Kv11.1, KCNH2) (Homo sapiens) assay: inhibition at 1.1 µM of COc1ccc(NC(=O)C2c3ccccc3C(=O)N(CC(C)C)C2c2cccs2)cc1Cl (centres undefined) = ?
**A:** 0%

**Q:** Notebook entry, hERG (Kv11.1, KCNH2) (Homo sapiens) assay: inhibition at 1.1 µM of Cc1cc(Nc2ccc(OCc3ccccc3)cc2)nc2cc(O)ccc12 = ?
**A:** -2%

**Q:** Notebook entry, hERG (Kv11.1, KCNH2) (Homo sapiens) assay: inhibition at 1.1 µM of Oc1ccc(C(=C(Cl)Cl)c2ccc(O)cc2)cc1 = ?
**A:** 7%
